Examples of variants with documented self-cleavage follow.
B1: Osa-1-4 twister ribozyme (parent)
chain: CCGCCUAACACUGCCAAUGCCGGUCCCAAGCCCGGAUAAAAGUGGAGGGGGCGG

Variants of: B1
Experiment: self-cleavage, relative activity (ratio to wild type); higher = more cleavage; co-transcriptional
# answer = number (no unit)

Examples from the recorded data:
Give the reported self-cleavage for this variant. A17G C25U
0.87

Give the reported self-cleavage for this variant. A7C C31U
0.05

Give the reported self-cleavage for this variant. A38G G48C
0.1

Give the reported self-cleavage for this variant. C14A G30U
0.62

Give the reported self-cleavage for this variant. A39U G44C
0.91

Give the reported self-cleavage for this variant. C15U C32U
0.06

Give the reported self-cleavage for this variant. A36G G30C
0.05

Give the reported self-cleavage for this variant. G45A G48U
0.05

Give the reported self-cleavage for this variant. A46G C25U
0.05

Give the reported self-cleavage for this variant. C9A U18C
0.19

Others:
Give the reported self-cleavage for this variant. A16U G34C
0.51

Give the reported self-cleavage for this variant. C26A G34C
0.05

Give the reported self-cleavage for this variant. C25U G51U
0.17

Give the reported self-cleavage for this variant. G23U G54U
0.2

Give the reported self-cleavage for this variant. A46G C21A
0.07

Give the reported self-cleavage for this variant. C11U G47U
0.07
